Biological target: protein-protein interaction between Kras and SOS1 (biotin-tagged human Kras loaded with GDP, His-tagged human SOS1) (Homo sapiens (Human), UniProt P01116, G12D)
Assay: Protein-protein interaction inhibition between Kras and SOS1 (KrasG12D-SOS PPI) using AlphaScreen
Type: biochemical
Details: AlphaScreen; biotin-tagged human Kras loaded with GDP, His-tagged human SOS1; read-out: KRAS G12D-SOS PPI IC50
Bridge positions count the residues as written; N and C are the ends. Square brackets hold non-standard residues; d marks the D form. Peptide text beside a SMILES is read from it. * marks the point of attachment. hPhe(3,5-F2-4-CF3) = N[C@@H](CCc1cc(F)c(C(F)(F)F)c(F)c1)C(=O)O; hPhe(3-Cl-4-CF3) = N[C@@H](CCc1ccc(C(F)(F)F)c(Cl)c1)C(=O)O; hPhe(3-F,4-CF3) = N[C@@H](CCc1ccc(C(F)(F)F)c(F)c1)C(=O)O; NMePhe(4-Me) = CN[C@@H](Cc1ccc(C)cc1)C(=O)O; NMeGly(cPent) = CN[C@H](C(=O)O)C1CCCC1; NMeCha = CN[C@@H](CC1CCCCC1)C(=O)O; Hyp = O=C(O)[C@@H]1C[C@@H](O)CN1; NMeAhp(2) = CCCCC[C@H](NC)C(=O)O; NMeI = CC[C@H](C)[C@H](NC)C(=O)O; NMeD = CN[C@@H](CC(=O)O)C(=O)O; NMeL = CN[C@@H](CC(C)C)C(=O)O; NMeNva = CCC[C@H](NC)C(=O)O; NMeV = CN[C@H](C(=O)O)C(C)C; NMeC = CN[C@@H](CS)C(=O)O; NMeA = CN[C@@H](C)C(=O)O; Piperidide = C1CCN(*)CC1; Pyrrolidide = C1CCN(*)C1; Ac5c = NC1(C(=O)O)CCCC1; Aze = O=C(O)[C@@H]1CCN1; Sar = CNCC(=O)O
parameter: pIC50
Numbers only, as −log10 of the molar value.

Solved entries (count: 3):
- compound: "CCCCC[C@H]1C(=O)N[C@@H]([C@@H](C)CC)C(=O)N(C)[C@@H](C)C(=O)N2CC[C@H]2C(=O)N(C)[C@@H](Cc2ccc(C)cc2)C(=O)N(C)CC(=O)N[C@@H](CCc2ccc(C(F)(F)F)c(Cl)c2)C(=O)N2CCC[C@H]2C(=O)NC2(CCCC2)C(=O)N(C)[C@@H]([C@@H](C)CC)C(=O)N(C)[C@H](C(=O)N(C)C)CC(=O)N1C [Compound 896] ([NMeAhp(2)]I[NMeA][Aze][NMePhe(4-Me)][Sar][hPhe(3-Cl-4-CF3)]P[Ac5c][NMeI][NMeD]-NMe2; lactam N-11)"
  pIC50: 8.96
- compound: "CCC[C@H]1C(=O)N[C@@H]([C@@H](C)CC)C(=O)N(C)[C@@H](C)C(=O)N2CC[C@H]2C(=O)N(C)[C@@H](CC2CCCCC2)C(=O)N(C)CC(=O)N[C@@H](CCc2ccc(C(F)(F)F)c(Cl)c2)C(=O)N2CCC[C@H]2C(=O)NC2(CCCC2)C(=O)N(C)[C@@H](C(C)C)C(=O)N(C)[C@H](C(=O)N2CCCCC2)CC(=O)N1C [Compound 1639] ([NMeNva]I[NMeA][Aze][NMeCha][Sar][hPhe(3-Cl-4-CF3)]P[Ac5c][NMeV][NMeD]-Piperidide; lactam N-11)"
  pIC50: 8.24
- compound: "CCO[C@@H]1C[C@H]2C(=O)NC3(CCCC3)C(=O)N(C)[C@@H](C3CCCC3)C(=O)N(C)[C@H](C(=O)N(C)C)CSCC(=O)N(C)[C@@H](CC(C)C)C(=O)N[C@@H]([C@@H](C)CC)C(=O)N(C)[C@@H](C)C(=O)N3CC[C@H]3C(=O)N(C)[C@@H](CC3CCCCC3)C(=O)N(C)CC(=O)N[C@@H](CCc3cc(F)c(C(F)(F)F)c(F)c3)C(=O)N2C1 [Compound 2176] ({CH2CO}-[NMeL]I[NMeA][Aze][NMeCha][Sar][hPhe(3,5-F2-4-CF3)][Hyp](Et)[Ac5c][NMeGly(cPent)][NMeC]-NMe2; thioether N-11)"
  pIC50: 6.92

Query string: Item under review: CC[C@H](C)[C@@H]1NC(=O)[C@H](CC(C)C)N(C)C(=O)C[C@@H](C(=O)N2CCCC2)N(C)C(=O)[C@H](C2CCCC2)N(C)C(=O)C2(CCCC2)NC(=O)[C@@H]2CCCN2C(=O)[C@H](CCc2ccc(C(F)(F)F)c(F)c2)NC(=O)CN(C)C(=O)[C@H](Cc2ccc(C)cc2)N(C)C(=O)[C@@H]2CCN2C(=O)[C@H](C)N(C)C1=O [Compound 20] ([NMeL]I[NMeA][Aze][NMePhe(4-Me)][Sar][hPhe(3-F,4-CF3)]P[Ac5c][NMeGly(cPent)][NMeD]-Pyrrolidide; lactam N-11) . Reported pIC50?
Result string: 9.12

----------
Kindly state IC50 for each of the entries shown.
Target: protein-protein interaction between Kras and SOS1 (biotin-tagged human Kras loaded with GDP, His-tagged human SOS1) (Homo sapiens (Human), UniProt P01116, G12D)
Assay: Protein-protein interaction inhibition between Kras and SOS1 (KrasG12D-SOS PPI) using AlphaScreen
Format: biochemical
Conditions: AlphaScreen; biotin-tagged human Kras loaded with GDP, His-tagged human SOS1; read-out: KRAS G12D-SOS PPI IC50
Bridge positions count the residues as written; N and C are the ends. Square brackets hold non-standard residues; d marks the D form. Peptide text beside a SMILES is read from it. * marks the point of attachment. hPhe(3-Cl-4-CF3) = N[C@@H](CCc1ccc(C(F)(F)F)c(Cl)c1)C(=O)O; hPhe(3-F,4-CF3) = N[C@@H](CCc1ccc(C(F)(F)F)c(F)c1)C(=O)O; NMeGly(cPent) = CN[C@H](C(=O)O)C1CCCC1; NMeCha = CN[C@@H](CC1CCCCC1)C(=O)O; NMeChg = CN[C@H](C(=O)O)C1CCCCC1; NMeD = CN[C@@H](CC(=O)O)C(=O)O; NMeL = CN[C@@H](CC(C)C)C(=O)O; NMeNva = CCC[C@H](NC)C(=O)O; NMeA = CN[C@@H](C)C(=O)O; Piperidide = C1CCN(*)CC1; Pyrrolidide = C1CCN(*)C1; Ac5c = NC1(C(=O)O)CCCC1; Aze = O=C(O)[C@@H]1CCN1; Sar = CNCC(=O)O
Numbers only, in nM.

- compound: "CCC[C@H]1C(=O)NC2(CCCC2)C(=O)N(C)[C@@H](C2CCCCC2)C(=O)N(C)[C@H](C(=O)N2CCCCC2)CC(=O)N(C)[C@@H](CC(C)C)C(=O)N[C@@H]([C@@H](C)CC)C(=O)N(C)CC(=O)N(C)CC(=O)N(C)[C@@H](CC2CCCCC2)C(=O)N(C)CC(=O)N[C@@H](CCc2ccc(C(F)(F)F)c(Cl)c2)C(=O)N1C [Compound 1005] ([NMeL]I[Sar][Sar][NMeCha][Sar][hPhe(3-Cl-4-CF3)][NMeNva][Ac5c][NMeChg][NMeD]-Piperidide; lactam N-11)"
  IC50 (nM): 3.5

With those in mind, consider the next compound.
Query string: Item under review: CC[C@H](C)[C@@H]1NC(=O)[C@H](CC(C)C)N(C)C(=O)C[C@@H](C(=O)N2CCCC2)N(C)C(=O)[C@H](C2CCCC2)N(C)C(=O)C2(CCCC2)NC(=O)[C@@H]2CCCN2C(=O)[C@H](CCc2ccc(C(F)(F)F)c(F)c2)NC(=O)CN(C)C(=O)[C@H](C2CCCC2)N(C)C(=O)[C@@H]2CCN2C(=O)[C@H](C)N(C)C1=O [Compound 918] ([NMeL]I[NMeA][Aze][NMeGly(cPent)][Sar][hPhe(3-F,4-CF3)]P[Ac5c][NMeGly(cPent)][NMeD]-Pyrrolidide; lactam N-11) . Reported IC50?
Result string: 0.89

----------
Kindly state pIC50 for each of the entries shown.
Molecular target: protein-protein interaction between Kras and SOS1 (biotin-tagged human Kras loaded with GDP, His-tagged human SOS1) (Homo sapiens (Human), UniProt P01116, G12D)
Test: Protein-protein interaction inhibition between Kras and SOS1 (KrasG12D-SOS PPI) using AlphaScreen;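 note: kras produced in E. coli, Ni-coupled donor beads and streptavidin acceptor beads, excitation 680 nm with emission detected at 520–620 nm via singlet oxygen transfer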
Format: biochemical
Conditions: AlphaScreen; biotin-tagged human Kras loaded with GDP, His-tagged human SOS1; read-out: KRAS G12D-SOS PPI IC50
Bridge positions count the residues as written; N and C are the ends. Square brackets hold non-standard residues; d marks the D form. Peptide text beside a SMILES is read from it. * marks the point of attachment. hPhe(3,5-F2-4-CF3) = N[C@@H](CCc1cc(F)c(C(F)(F)F)c(F)c1)C(=O)O; hPhe(3-Cl-4-CF3) = N[C@@H](CCc1ccc(C(F)(F)F)c(Cl)c1)C(=O)O; NMeCha = CN[C@@H](CC1CCCCC1)C(=O)O; Hyp = O=C(O)[C@@H]1C[C@@H](O)CN1; NMeChg = CN[C@H](C(=O)O)C1CCCCC1; NMeD = CN[C@@H](CC(=O)O)C(=O)O; NMeNva = CCC[C@H](NC)C(=O)O; NMeV = CN[C@H](C(=O)O)C(C)C; NMeA = CN[C@@H](C)C(=O)O; Pyrrolidide = C1CCN(*)C1; dNMeA = CN[C@H](C)C(=O)O; Ac5c = NC1(C(=O)O)CCCC1; Aze = O=C(O)[C@@H]1CCN1; Sar = CNCC(=O)O
One number for each entry, as −log10 of the molar value.

- compound: "CCC[C@H]1C(=O)N[C@@H]([C@@H](C)CC)C(=O)N(C)CC(=O)N(C)CC(=O)N(C)[C@@H](CC2CCCCC2)C(=O)N(C)CC(=O)N[C@@H](CCc2cc(F)c(C(F)(F)F)c(F)c2)C(=O)N2C[C@H](OCC)C[C@H]2C(=O)NC2(CCCC2)C(=O)N(C)[C@@H](C2CCCCC2)C(=O)N(C)[C@H](C(=O)N2CCCC2)CC(=O)N1C [Compound 1367] ([NMeNva]I[Sar][Sar][NMeCha][Sar][hPhe(3,5-F2-4-CF3)][Hyp](Et)[Ac5c][NMeChg][NMeD]-Pyrrolidide; lactam N-11)"
  pIC50: 9.19

Query string: Item under review: CC[C@H](C)[C@@H]1NC(=O)[C@H](C)N(C)C(=O)C[C@@H](C(=O)N2CCCC2)N(C)C(=O)[C@H](C(C)C)N(C)C(=O)C2(CCCC2)NC(=O)[C@@H]2CCCN2C(=O)[C@H](CCc2ccc(C(F)(F)F)c(Cl)c2)NC(=O)[C@@H](C)N(C)C(=O)[C@H](CC2CCCCC2)N(C)C(=O)[C@@H]2CCN2C(=O)[C@H](C)N(C)C1=O [Compound 1827] ([NMeA]I[NMeA][Aze][NMeCha][dNMeA][hPhe(3-Cl-4-CF3)]P[Ac5c][NMeV][NMeD]-Pyrrolidide; lactam N-11) . Reported pIC50?
Result string: 8.18
